- test system: Gal(b1-3)[Fuc(a1-4)]GlcNAc(b1-3)Gal(b1-4)[Fuc(a1-3)]GlcNAc
- assay text: glycan array binding signal (z-score within array); higher = stronger binding
- applied conditions: glycan notation: IUPAC condensed, linker removed
The sample as a whole holds a higher share of the strongest signals than the screen did.
experimental endpoint: glycan array binding signal (z-score)
Could you keep your reply to the number by itself?

Returns the measured glycan array binding signal (z-score) for the input binder. Input: FaeGad (Escherichia coli) (protein) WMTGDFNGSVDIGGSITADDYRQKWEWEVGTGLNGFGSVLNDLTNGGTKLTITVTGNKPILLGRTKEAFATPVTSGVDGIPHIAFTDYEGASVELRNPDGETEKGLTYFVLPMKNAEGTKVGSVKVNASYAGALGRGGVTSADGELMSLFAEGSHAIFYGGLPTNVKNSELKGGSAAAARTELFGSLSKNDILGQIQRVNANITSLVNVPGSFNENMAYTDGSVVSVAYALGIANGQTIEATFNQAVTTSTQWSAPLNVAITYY 0.979

Try this binder next: FedF (Escherichia coli), Q47212 (protein) MRLKYILIIPLLLISLSVFASTLQVDKSVSYDWINSSASSAQVTGTLLGTGKTNTTQMPALYTWQHQIYNVNFIPSSSGTLTCQAGTILVWKNGRETQYALECRVSIHHSSGSINESQWGQQSQVGFGTACGNKKCRFTGFEISLRIPPNAQTYPLSSGDLKGSFSLTNKEVNWSASIYVPAIAKSYRLDTSITLPDTVNLKQNQATPVYYTFSAPSVSNTITGIPNQNDMPSSNVKLTIGPIQSKTTALYVQPDATGSWYDLSKSITMTVVKSSMLNFKGINAKPGNVTLSVPIVFEIQ -0.274
